target: KRAS Q61H (Homo sapiens, UniProt P01116+P62937, Q61H); assay: Ras-Raf disruption / FRET / MOA assay (BRAF RBD); type: biochemical
Sequence (P01116 1-169 isoform P01116-2 Q61H limits assumed, one chain of several): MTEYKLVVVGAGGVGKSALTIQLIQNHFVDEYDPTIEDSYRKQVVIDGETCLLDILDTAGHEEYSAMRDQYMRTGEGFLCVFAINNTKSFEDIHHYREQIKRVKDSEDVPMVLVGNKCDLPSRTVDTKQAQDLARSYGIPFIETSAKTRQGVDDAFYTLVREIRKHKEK
pIC50: −log10 of the molar value.
Measured pIC50 by item

Worked cases, pIC50 given:
compound=CCn1c(-c2cccnc2[C@H](C)OC)c2c3cc(ccc31)-c1cc(O)cc(c1)C[C@H](NC(=O)[C@H](C(C)C)N(C)C(=O)CN(C)C(=O)[C@H]1N[C@@H]1C1COC1)C(=O)N1CCC[C@H](N1)C(=O)OCC(C)(C)C2 result="7.00 to 8.00"
compound=CCn1c(-c2cc(C3CCN(C)CC3)cnc2[C@H](C)OC)c2c3cc(ccc31)-c1cc(O)cc(c1)C[C@H](NC(=O)[C@H](C1CCCC1)N(C)C(=O)CN(C)C(=O)[C@H]1CN1)C(=O)N1CCC[C@H](N1)C(=O)OCC(C)(C)C2 result="> 8.00"

[in] pIC50 lookup needed for CCn1c(-c2cccnc2[C@H](C)OC)c2c3cc(ccc31)-c1cc(O)cc(c1)C[C@H](NC(=O)[C@H](C(C)C)N(C)C(=O)CN(C)C(=O)[C@@H]1CN1CC1COC1)C(=O)N1CCC[C@H](N1)C(=O)OCC(C)(C)C2 (stereo partly shown) , thanks.
[out] 7.00 to 8.00

[in] Any idea what pIC50 was measured for CCn1c(-c2cccnc2[C@H](C)OC)c2c3cc(ccc31)-c1cc(O)cc(c1)C[C@H](NC(=O)[C@H](C(C)C)N(C)C(=O)C13CC(CN1C(=O)[C@@H]1CN1)C3)C(=O)N1CCC[C@H](N1)C(=O)OCC(C)(C)C2 ?
[out] 7.00 to 8.00

* * *

molecular target: KRAS G13D (Homo sapiens, UniProt P01116+P62937, G13D); experiment: Disruption of BRAF RBD interaction with Ras (FRET / MOA assay, with Cyclophilin A); format: biochemical; settings: KRAS G13D; read-out: KRAS G13D FRET data IC50
Sequence (P01116 1-169 isoform P01116-2 G13D limits assumed): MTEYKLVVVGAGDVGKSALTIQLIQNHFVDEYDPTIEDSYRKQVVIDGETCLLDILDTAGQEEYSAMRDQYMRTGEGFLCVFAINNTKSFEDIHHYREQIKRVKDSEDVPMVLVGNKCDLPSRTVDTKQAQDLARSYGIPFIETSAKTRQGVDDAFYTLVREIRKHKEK
Sequence (P62937 whole entry): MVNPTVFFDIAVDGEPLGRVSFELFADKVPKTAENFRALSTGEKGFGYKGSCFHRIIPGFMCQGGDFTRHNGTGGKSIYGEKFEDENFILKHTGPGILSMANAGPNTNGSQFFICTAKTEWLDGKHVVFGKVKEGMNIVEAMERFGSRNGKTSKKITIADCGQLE
measure: IC50

In the examples that follow, each entry is paired with its recorded IC50.
molecule=CCn1c(-c2cccnc2[C@H](C)OC)c2c3cc(ccc31)-c1nc(cs1)C[C@H](NC(=O)[C@H](C(C)C)N(C)C(C)=O)C(=O)N1CCC[C@H](N1)C(=O)OCC(C)(C)C2 measure=IC50 result="1 to 10 µM"
molecule="CCn1c(-c2cccnc2[C@H](C)OC)c2c3cc(ccc31)-c1csc(n1)[C@@H](O)[C@H](NC(=O)[C@H](C(C)C)N(C)C(=O)N1CC(N(C)C)C1)C(=O)N1CCC[C@H](N1)C(=O)OCC(C)(C)C2 (atropisomer, axis not shown)" measure=IC50 result="0.1 to 1 µM"
molecule=CCn1c(-c2cccnc2COC)c2c3cc(ccc31)-c1cc(O)cc(c1)C[C@H](NC(=O)[C@@H](C(C)C)N(C)C(=O)[C@H]1CCN(C(=O)C#CCN(C)C)C1)C(=O)N1CCC[C@H](N1)C(=O)OCC(C)(C)C2 measure=IC50 result="1 to 10 µM"

[in] Test system KRAS G13D (Homo sapiens, UniProt P01116+P62937, G13D); read-out IC50; what value for CCn1c(-c2cccnc2[C@H](C)OC)c2c3cc(ccc31)-c1cc(O)cc(c1)C[C@H](NC(=O)[C@H](C(C)C)N(C)C(=O)[C@H]1CCN(C)C1)C(=O)N1CCC[C@H](N1)C(=O)OCC(C)(C)C2 ?
[out] 0.01 to 0.1 µM

[in] GET /values?readout=IC50&system=KRAS G13D (Homo sapiens, UniProt P01116+P62937, G13D)&item= CCn1c(-c2cccnc2[C@H](C)OC)c2c3cc(ccc31)-c1csc(n1)C[C@H](NC(=O)[C@H](C(C)C)N(C)C(=O)N1CCCC13CCOCC3)C(=O)N1CCC[C@H](N1)C(=O)OCC(C)(C)C2 (atropisomer, axis not shown)
[out] 0.1 to 1 µM
